These data points were gathered from paper PMC12691669.

subject of test: Human c20S proteasome β5 subunit (Homo sapiens, UniProt P20618+P28074)
Construct: purchased Bio-Techne
assay remarks: In vitro proteasome assay, suc-LLVY-amc substrate
Format: biochemical
condition info: purified human c20S with PA28α, mean ± SD; read-out: Human c20S proteasome inhibition of β5 subunit (IC50)
pIC50: −log10 of the molar value.
Assign 1 whenever pIC50 does not fall below 7; assign 0 whenever it does.

compound	cat
CCCCC(=O)N[C@H](Cc1c[nH]c2ccccc12)C(=O)N[C@@H](Cc1c[nH]c2ccccc12)C(=O)N[C@@H](Cc1ccccc1)C(=O)[C@]1(C)CO1 [compound 91]	1
CCCCCC(=O)N[C@H](C(=O)N[C@@H](CCS(C)(=O)=O)C(=O)N[C@@H](CC(C)C)C(=O)[C@@]1(C)CO1)C(C)C [38 (CPB), carmaphycin B, reference compound]	1
COc1ccc(CC(NC(=O)C(C)NC(=O)OCc2ccccc2)C(=O)NC(Cc2ccccc2)C(=O)C2(C)CO2)cc1 (stereo not drawn) [compound 12]	0
CCCCCC(=O)N[C@@H](CO)C(=O)N[C@@H](CCCC)C(=O)N[C@@H](Cc1ccccc1)C(=O)[C@@]1(C)CO1 [compound 19]	1
COc1ccc(CC(NC(=O)C(C)NC(=O)OCc2ccccc2)C(=O)NC(Cc2ccccc2)C(=O)C2(C)CO2)cc1 (stereo not drawn) [compound 11]	1
